ELISA signal relative to background for assorted binders
Target: T1, FX activation peptide 12-mer SSSGEAPDSITW (human)
T1 peptide: SSSGEAPDSITW-biotin
Assay: peptide ELISA
Ends that are not written are not given here.
Simply state the number, no unit and no words.

binder: Nb 730C03 (VHH, monovalent Nanobody; also called Nb 730003; not shown: C-terminal FLAG3 and HIS6 tag) VHH: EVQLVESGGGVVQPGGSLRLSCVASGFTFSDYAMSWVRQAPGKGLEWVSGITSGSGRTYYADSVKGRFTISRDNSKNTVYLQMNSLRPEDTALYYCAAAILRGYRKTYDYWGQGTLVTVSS
reportedMetric: ELISA signal relative to background
readoutValue: 1.21

binder: Nb 501A02 (VHH, monovalent control Nanobody; also called control Nanobody; not shown: C-terminal FLAG3 and HIS6 tag) VHH: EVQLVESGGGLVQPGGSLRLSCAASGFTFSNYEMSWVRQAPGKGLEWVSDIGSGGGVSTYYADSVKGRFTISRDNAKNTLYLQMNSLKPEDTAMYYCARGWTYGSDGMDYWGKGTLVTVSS
reportedMetric: ELISA signal relative to background
readoutValue: 0.82

binder: Nb 729A04 (VHH, monovalent Nanobody; not shown: C-terminal FLAG3 and HIS6 tag) VHH: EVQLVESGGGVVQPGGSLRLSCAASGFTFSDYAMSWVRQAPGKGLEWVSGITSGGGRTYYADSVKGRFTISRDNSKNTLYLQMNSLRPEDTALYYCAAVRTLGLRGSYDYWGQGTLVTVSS
reportedMetric: ELISA signal relative to background
readoutValue: 1.24

binder: Nb 702C12 (VHH, monovalent Nanobody; not shown: C-terminal FLAG3 and HIS6 tag) VHH: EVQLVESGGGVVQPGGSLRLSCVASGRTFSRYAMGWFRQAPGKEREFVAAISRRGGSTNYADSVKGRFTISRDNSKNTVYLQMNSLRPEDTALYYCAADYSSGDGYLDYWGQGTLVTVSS
reportedMetric: ELISA signal relative to background
readoutValue: 0.86

Turning now to a further binder:
*Q* Item under review: Nb 721E08 (VHH, monovalent Nanobody; not shown: C-terminal FLAG3 and HIS6 tag) VHH: EVQLVESGGGVVQPGGSLRLSCAASGRTFSTYSMGWFRQAPGKEREFVAAITRRGSRTYYADSVKGRFTISRDNSKNTVYLQMNSLRPEDTALYYCAADRRPADSYLDYWGQGTLVTVSS . Reported ELISA signal relative to background?
*A* 1.99
